Target: His6-avi-MBP-tagged POLE2
Assay: Single-point nHU-MS with recombinant His6-avi-MBP-POLE2 bait, Jurkat extract
Type: binding, human
Settings: significant apparent affinity of endogenous prey protein for POLE2 bait; single-point nHU-MS; Figure S11
MEASURED METRIC: pKapp_sign
Answer with a bare number; do not write a unit.

Record summary for PNMA2 (protein, UniProt Q9UL42 2-364, looked up) Paraneoplastic antigen Ma2: ALALLEDWCRIMSVDEQKSLMVTGIPADFEEAEIQEVLQETLKSLGRYRLLGKIFRKQENANAVLLELLEDTDVSAIPSEVQGKGGVWKVIFKTPNQDTEFLERLNLFLEKEGQTVSGMFRALGQEGVSPATVPCISPELLAHLLGQAMAHAPQPLLPMRYRKLRVFSGSAVPAPEEESFEVWLEQATEIVKEWPVTEAEKKRWLAESLRGPALDLMHIVQADNPSISVEECLEAFKQVFGSLESRRTAQVRYLKTYQEEGEKVSAYVLRLETLLRRAVEKRAIPRRIADQVRLEQVMAGATLNQMLWCRLRELKDQGPPPSFLELMKVIREEEEEEASFENESIEEPEERDGYGRWNHEGDD : reported pKapp_sign = 5.251
